- Tested Target: Sodium/potassium-transporting ATPase
- Assay Name: Inhibition of human Na+/K+-ATPase assessed as reduction in inorganic phosphate release from ATP incubated for 15 mins followed by ATP addition measured over 15 mins in presence of Na+/K+ by colorimetric method
Parameter Measured: IC50 (nM)

>  <Chemical Smiles>
CC1(C)CCC[C@](C)([C@H]2CC[C@]3(C)[C@@H]2[C@H](O)C[C@@H]2[C@@]4(C)Cc5c([nH]c6ccc(F)cc56)C(C)(C)[C@@H]4C(=O)C[C@]23C)O1

>  <Tested Target>
Sodium/potassium-transporting ATPase

>  <IC50 [nM]>
910

$$$$

(A) CC1(C)CCC[C@](C)([C@H]2CC[C@]3(C)[C@@H]2[C@H](O)C[C@@H]2[C@@]4(C)CCC(=O)C(C)(C)[C@@H]4[C@@H](O)C[C@]23C)O1
(B) COC(=O)CC[C@@]1(C)CC(=O)C[C@]2(C)[C@@H]1C[C@@H](O)[C@@H]1[C@@H]([C@@]3(C)CCCC(C)(C)O3)CC[C@]12C
In: Given the listed items, does A or B have the lesser reported IC50? Indicate which entry you chose by stating its label.
Out: B
(B: 410 nM, A: 1140 nM)

(P) CC1(C)CCC[C@](C)([C@H]2CC[C@]3(C)[C@@H]2C(=O)C[C@@H]2[C@@]4(C)CCC(=O)OC(C)(C)[C@@H]4[C@@H](O)C[C@]23C)O1
(Q) CC1(C)CCC[C@](C)([C@H]2CC[C@]3(C)[C@@H]2[C@H](O)C[C@@H]2[C@@]4(C)Cc5c([nH]c6ccccc56)C(C)(C)[C@@H]4C(=O)C[C@]23C)O1
(R) CC1(C)CCC[C@](C)([C@H]2CC[C@]3(C)[C@@H]2[C@H](O)C[C@@H]2[C@@]4(C)CCC(=O)C(C)(C)[C@@H]4[C@@H](OCc4ccccc4)C[C@]23C)O1
In: Sort by IC50, descending. Answer format: list of labels, ordered as asked.
Out: P, Q, R

(P) CC1(C)CCC[C@](C)([C@H]2CC[C@]3(C)[C@@H]2[C@H](O)C[C@@H]2[C@@]4(C)CCC(=O)OC(C)(C)[C@@H]4C(=O)C[C@]23C)O1
(Q) CC1(C)CCC[C@](C)([C@H]2CC[C@]3(C)[C@@H]2C(=O)C[C@@H]2[C@@]4(C)CCC(=O)C(C)(C)[C@@H]4[C@@H](O)C[C@]23C)O1
In: Higher IC50: P or Q ? Indicate which entry you chose by stating its label.
Out: P

(I) CC1(C)CCC[C@](C)([C@H]2CC[C@]3(C)[C@@H]2[C@H](O)C[C@@H]2[C@@]4(C)CC[C@H](O)C(C)(C)[C@@H]4C(=O)C[C@]23C)O1
(II) CC1(C)CCC[C@](C)([C@H]2CC[C@]3(C)[C@@H]2[C@H](O)C[C@@H]2[C@@]4(C)CCC(=O)C(C)(C)[C@@H]4C(=O)C[C@]23C)O1
In: Higher IC50: I or II ? Indicate which entry you chose by stating its label.
Out: I

Origin of measurements: ChEMBL document CHEMBL4229479
